Please go through the items and note down their LD90.
experimentalProtocol: Lethal dose was evaluated against flea
testParameters: pulicinae

-- ask Any idea what LD90 was measured for C=C(C)[C@H]1Cc2c3c(cc4c5c(n1c24)[C@@]1(C)[C@@H](CC[C@H]2[C@](C)(/C=C/C=C(\C)C(=O)[O-])[C@@H](O)CC[C@@]21C)C5)C1=CC(C)(C)OC(C)(C)[C@H]1[C@@H]3O.[Na+] ?
-- reply 100 p.p.m.

-- ask Try the compound C=C(C)[C@H]1C(=O)c2c3c(cc4c5c(n1c24)[C@@]1(C)[C@@H](CC[C@H]2[C@](C)(/C=C/C=C(\C)C(=O)OC)[C@@H](O)CC[C@@]21C)C5)C1=CC(C)(C)OC(C)(C)[C@H]1[C@@H]3O
-- reply 10 p.p.m.

-- ask Try the compound C=C(C)[C@H]1C(=O)c2c3c(cc4c5c(n1c24)[C@@]1(C)C(CC[C@H]2[C@](C)(/C=C/C=C(\C)C(=O)O)[C@@H](O)CC[C@@]21C)C5)C1=CC(C)(C)OC(C)(C)C1[C@@H]3O (stereo partly specified)
-- reply 1 p.p.m.

-- ask Try the compound C=C(C)[C@H]1C(=O)c2c3c(cc4c5c(n1c24)[C@@]1(C)[C@@H](CC[C@@H]2[C@]1(C)CC[C@]1(O)O[C@H](/C=C(\C)C(=O)O)C[C@@]21C)C5)C1=CC(C)(C)OC(C)(C)[C@H]1[C@@H]3O
-- reply 5 p.p.m.

-- ask Try the compound C=C(C)[C@H]1Cc2c3c(cc4c5c(n1c24)[C@@]1(C)[C@@H](CC[C@H]2[C@](C)(/C=C/C=C(\C)C(=O)OC)[C@@H](O)CC[C@@]21C)C5)C1=CC(C)(C)OC(C)(C)[C@H]1[C@@H]3O
-- reply 100 p.p.m.

-- ask Try the compound C=C(C)[C@H]1C(=O)c2c3c(cc4c5c(n1c24)[C@@]1(C)[C@@H](CC[C@@H]2[C@]1(C)CC[C@]1(O)O[C@H](C(O)C(C)C(=O)O)C[C@@]21C)C5)C1=CC(C)(C)OC(C)(C)[C@H]1[C@@H]3O (stereo partly specified)
-- reply 10 p.p.m.
